Data provenance: the supplement of paper PMC7840683

Quick reference: LDH release cytotoxicity of the listed items.
- System: HepaRG
- protocol: LDH release cytotoxicity, % of total lysis control; higher = more cytotoxic
- condition-summary: 10 µM; 48 h
endpoint-label: LDH release cytotoxicity (%)

INSERT INTO results (compound, quantitative_readout) VALUES
  ('CC1=NC(=O)N(C(C)(C)C)C(=O)C1Cl (configuration not stated)', -2.77),
  ('OCCCl', -0.492),
  ('O=C(Oc1ccc(Br)cc1)N1CCN2CCC1CC2', -1.29),
  ('COP(=O)(OC)OC(Br)C(Cl)(Cl)Br (configuration not stated)', -1.19),
  ('CN1CCCC1=O', -1.93),
  ('COC(=O)CCC(=O)OC [Dimethyl succinate]', -1.56),
  ('OCCCBr', -0.0559),
  ('NC(=O)N1c2ccccc2C=Cc2ccccc21 [Carbamazepine]', -1.28),
  ('NC1CCCCC1', -1.74),
  ('CNC(=O)ON=C(C)SC', -0.128),
  ('CC(=O)OC1CC(C)OC(C)O1 (configuration not stated)', -1.72),
  ('c1ccc(Nc2ccccc2)cc1', -1);

---

- Tested on: HepaRG
- protocol: LDH release cytotoxicity, % of total lysis control; higher = more cytotoxic
- condition-summary: 1 µM; 48 h
endpoint-label: LDH release cytotoxicity (%)

INSERT INTO assay_data (compound, assayed_target, quantitative_readout) VALUES
  ('CCCOC(=O)c1cc(O)c(O)c(O)c1 [Propyl gallate]', 'HepaRG', -4.27),
  ('O=C(O)C(F)(F)C(F)(F)C(F)(F)C(F)(F)C(F)(F)C(F)(F)C(F)(F)F', 'HepaRG', -1.76),
  ('ClC(Cl)c1ccccc1 [Benzal chloride]', 'HepaRG', -1.3),
  ('CCOC(=O)COc1cc(-n2ncc(C(F)(F)F)c(C)c2=O)c(F)cc1Cl', 'HepaRG', -1.34),
  ('CCNP(=S)(OC)OC(C)=CC(=O)OC(C)C (centres undefined)', 'HepaRG', -0.42),
  ('Cc1ccc(C(C)C)c(O)c1', 'HepaRG', -0.734),
  ('CC12CCC3C(CCC4=CC(=O)CCC43C)C1CCC2=O (centres undefined)', 'HepaRG', -2.45),
  ('CC1=C(C(=O)Nc2ccccc2)SCCO1', 'HepaRG', -0.232),
  ('COc1ccc(S(=O)(=O)N2C(=O)C(c3ccccc3OC)(N3CC(O)CC3C(=O)N(C)C)c3cc(Cl)ccc32)c(OC)c1 (centres undefined)', 'HepaRG', -0.447);

---

- Tested on: HepaRG
- protocol: LDH release cytotoxicity, % of total lysis control; higher = more cytotoxic
- condition-summary: 15.8114 µM; 48 h
Structures can show the parent of a compound that is named as a salt.
Quick reference: LDH release cytotoxicity of the listed items.
endpoint-label: LDH release cytotoxicity (%)

INSERT INTO results (compound, endpoint_label, quantitative_readout) VALUES
  ('CCCCCCCCCCCCCCCCOS(=O)(=O)O [Sodium hexyldecyl sulfate]', 'LDH release cytotoxicity', -0.978),
  ('O=C1NC(=O)C(c2ccccc2)(c2ccccc2)N1', 'LDH release cytotoxicity', 50.1),
  ('S=C([S-])NCCNC(=S)[S-].S=C([S-])NCCNC(=S)[S-].[Mn+2].[Zn+2]', 'LDH release cytotoxicity', 72.5),
  ('CCOc1nc(F)cc2nc(S(=O)(=O)Nc3c(Cl)cccc3Cl)nn12', 'LDH release cytotoxicity', -4.75),
  ('C=CN1CCCC1=O', 'LDH release cytotoxicity', -1.96),
  ('CCCSP(=O)(OCC)Oc1ccc(Br)cc1Cl (configuration not stated)', 'LDH release cytotoxicity', -7.49),
  ('Cc1nc(C)nc(N2CC(C)N(c3ccnc(C(C)O)n3)C(C)C2)n1 (configuration not stated)', 'LDH release cytotoxicity', -0.652);
